target: T1, HLA-B*0702 (human); test: inhibition of 125I standard peptide binding to purified HLA
T1 construct: also called B7 supertype prototype molecule
Task for the reader: assign each of the following binders its reported relative binding ratio.

Known relative binding ratio results, listed for orientation:
PPICTIDVYMI (also called Her2/neu.944) [HER2/neu peptide, position 944, 11 amino acids]; 0.0064 ratio to standard peptide
NPEYLTPQGGA (also called Her2/neu.1193) [HER2/neu peptide, position 1193, 11 amino acids]; -0.0003 ratio to standard peptide
WPDSLPDLSV (also called Her2/neu.415) [HER2/neu peptide, position 415, 10 amino acids]; 0.0044 ratio to standard peptide
PPSTFKGTPTA (also called Her2/neu.1233) [HER2/neu peptide, position 1233, 11 amino acids]; -0.0003 ratio to standard peptide
NPQLCYQDTIL (also called Her2/neu.158) [HER2/neu peptide, position 158, 11 amino acids]; -0.0002 ratio to standard peptide
SPETHLDM (also called Her2/neu.38) [HER2/neu peptide, position 38, 8 amino acids]; 0.0014 ratio to standard peptide
SPMCKGSRCW (also called Her2/neu.196) [HER2/neu peptide, position 196, 10 amino acids]; 0.0021 ratio to standard peptide
VPLPSETDGY (also called Her2/neu.1118) [HER2/neu peptide, position 1118, 10 amino acids]; 0.0001 ratio to standard peptide
NPHQALLHTA (also called Her2/neu.488) [HER2/neu peptide, position 488, 10 amino acids]; 0.0005 ratio to standard peptide
QPEYVNQPDV (also called Her2/neu.1136) [HER2/neu peptide, position 1136, 10 amino acids]; 0.0001 ratio to standard peptide

Switching to the query record.
// lookup relative binding ratio for SPAFDNLYY (also called Her2/neu.1214) [HER2/neu peptide, position 1214, 9 amino acids]
0.0001 ratio to standard peptide
